# System: His6-ArcA (unphosphorylated) (Salmonella enterica serovar Typhimurium IR715 (ATCC14028 NalR)), ORF:c309dbee
# Sequence: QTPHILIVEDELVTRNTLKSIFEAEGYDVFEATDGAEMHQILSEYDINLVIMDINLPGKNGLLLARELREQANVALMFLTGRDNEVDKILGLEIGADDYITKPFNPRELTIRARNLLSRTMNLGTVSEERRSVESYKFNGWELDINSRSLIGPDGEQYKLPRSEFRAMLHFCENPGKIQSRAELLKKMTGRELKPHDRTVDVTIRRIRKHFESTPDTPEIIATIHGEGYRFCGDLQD
# experimentNotes: EMSA
# cond: LightShift Chemiluminescent EMSA kit (binding buffer, salt and pH not given), 20 min room temperature; 20 fmol probe, 6% 0.5x TBE gel (TtdV/TtdW); 50 fmol …

seqText	binding
GCCTTCTTCGGTGACCTTATGGCCCATCGACAGGCCGTTCCACATATTACAGAGCAACATTTTCATTTTTTCGTTGCCAGCAACATTCCATATTTCCATATGAAATGCCTGATTCAGGTCGGAGTATTCCGCCGAGTTATTTTCCGCGAGAGCCTTTTCAGCGGCATAATGCACCTGGGCTATCCGCGAGATATCGGAGCCAGGACGAGAAGCTTTAGCCACCGCCTCACTTTCTAACAGCGCGCGAATTTCATAGTGTTCACGGATGG (double strand) [Probe 1]	binds
CGTATGCTGACCCGCTATGTTGGTGACCCTTCTGCCTGATCTTTTCGCCTGCGTGAGCATCGCAGGCGCTTCAACCAATTCTTCAATTCTATTAATCACGTCCAGTAACGATCTAACCACGATCTTGATGTAGATCCCACTCCTGCATCTTTCCTGAGAAACGATTTGACTTAGTTTTTGTATGGGAATAATTTCTCCCTGTCAACATTGGATACAATATCATATATCATTGATTGGATAATTATAAATATGGAACCCATTACCCTTACCTTATGTTTATTGGTGTTCGCCC (double strand) [Probe 4]	binds
CCTAACTCGGCGGAATACTCCGACCTGAATCAGGCATTTCATATGGAAATATGGAATGTTGCTGGCAACGAAAAAATGAAAATGTTGCTCTGTAATATGTGGAACGGCCTGTCGATGGGCCATAAGGTCACCGAAGAAGAGTATGCCGTGATTTCCATTCAGGAACATAAAAGTATTCTGCAAGCTCTTGAACTTCATGATGAAACATTGGCACGCCAGCGCATGCGCGAACACATTATTCGCTCAATGGAGAATATGCTGACCCGCTATGTTG (double strand) [Probe 2]	binds
ACCGAAGAAGAGTATGCCGTGATTTCCATTCAGGAACATAAAAGTATTCTGCAAGCTCTTGAACTTCATGATGAAACATTGGCACGCCAGCGCATGCGCGAACACATTATTCGCTCAATGGAGAATATGCTGACCCGCTATGTTGGTGACCCTTCTGCCTGATCTTTTCGCCTGCGTGAGCATCGCAGGCGCTTCAACCAATTCTTCAATTCTATTAATCACGTCCAGTAACGATCTAACCACGATCTTGATGTAGC (double strand) [Probe 3]	binds

Origin of the recorded values: paper PMC11237755
